# Target Of Assay: mTOR (Homo sapiens)
# Protocol: mTOR enzyme assay (DELFIA, purified FLAG-TOR, His6-S6K substrate)
# Format: biochemical
# Parameters: FLAG
# Measurement Conditions: 100 μM ATP, 2 hours
Assign a class from recorded IC50; defined classes: lo: < 2 nM; med: ≥ 2 nM and < 3 nM; hi: ≥ 3 nM

Query string: Sort `CC(C)Nc1cc(N2CC3CCC(C2)O3)nc(-c2ccc(NC(=O)Nc3ccc(N4CCN(C)CC4)cc3)cc2)n1` into one of the categories.
Result string: hi

* * *

List of IC50 tested on UniProtKB P48736.

Worked cases, IC50 given:
Smiles Representation: CC(C)Nc1cc(N2C3CCC2COC3)nc(-c2ccc(NC(=O)Nc3cccnc3)cc2)n1
IC50: ≥ 10 µM
--
Smiles Representation: O=C(Nc1ccc(-c2nc(NC3CCOCC3)cc(N3C4CCC3COC4)n2)cc1)Nc1cccnc1
IC50: ≥ 10 µM

Kindly note the recorded IC50 for `CNC(=O)Nc1ccc(-c2nc(CN(C)C)cc(N3C4CCC3COC4)n2)cc1` , which is > 10 µM

* * *

# Target Of Assay: mTOR (Homo sapiens)
# Protocol: mTOR enzyme assay (DELFIA, purified FLAG-TOR, His6-S6K substrate)
# Format: biochemical
# Set-up: FLAG
# Measurement Conditions: 100 μM ATP, 2 hours
The following molecules are listed with their measured IC50 values.
Give the value in nM but do not write nM after it.

Look over these answered cases.
Smiles Representation: C[C@@H]1COCCN1c1cc(N2C3CCC2COC3)nc(-c2ccc(NC(=O)Nc3ccc(N4CCN(C)CC4)cc3)cc2)n1
Target Of Assay: mTOR (Homo sapiens)
IC50 (nM): 1.25
--
Smiles Representation: O=C(Nc1ccncc1)Nc1ccc(-c2cc(N3CC4CCC(C3)O4)nc(N3CC4CCC(C3)O4)n2)cc1
Target Of Assay: mTOR (Homo sapiens)
IC50 (nM): 2.45

Below: the item to evaluate.
molecule `CN1CCN(c2ccc(NC(=O)Nc3ccc(-c4nc(C5CCOCC5)cc(N5C6CCC5COC6)n4)cc3)cn2)CC1` , IC50 observed: 1.22

* * *

In what follows, each item is paired with its IC50 for PI3K-alpha (Homo sapiens, UniProt P42336).
Numbers only; they are read as nM.

Smiles Representation: C[C@@H]1COCCN1c1cc(N2C3CCC2COC3)nc(-c2ccc(NC(=O)Nc3ccc(C(=O)N4CCN(C)CC4)cc3)cc2)n1
Target Of Assay: PI3K-alpha (Homo sapiens, UniProt P42336)
Sequence (P42336 whole entry, species assumed): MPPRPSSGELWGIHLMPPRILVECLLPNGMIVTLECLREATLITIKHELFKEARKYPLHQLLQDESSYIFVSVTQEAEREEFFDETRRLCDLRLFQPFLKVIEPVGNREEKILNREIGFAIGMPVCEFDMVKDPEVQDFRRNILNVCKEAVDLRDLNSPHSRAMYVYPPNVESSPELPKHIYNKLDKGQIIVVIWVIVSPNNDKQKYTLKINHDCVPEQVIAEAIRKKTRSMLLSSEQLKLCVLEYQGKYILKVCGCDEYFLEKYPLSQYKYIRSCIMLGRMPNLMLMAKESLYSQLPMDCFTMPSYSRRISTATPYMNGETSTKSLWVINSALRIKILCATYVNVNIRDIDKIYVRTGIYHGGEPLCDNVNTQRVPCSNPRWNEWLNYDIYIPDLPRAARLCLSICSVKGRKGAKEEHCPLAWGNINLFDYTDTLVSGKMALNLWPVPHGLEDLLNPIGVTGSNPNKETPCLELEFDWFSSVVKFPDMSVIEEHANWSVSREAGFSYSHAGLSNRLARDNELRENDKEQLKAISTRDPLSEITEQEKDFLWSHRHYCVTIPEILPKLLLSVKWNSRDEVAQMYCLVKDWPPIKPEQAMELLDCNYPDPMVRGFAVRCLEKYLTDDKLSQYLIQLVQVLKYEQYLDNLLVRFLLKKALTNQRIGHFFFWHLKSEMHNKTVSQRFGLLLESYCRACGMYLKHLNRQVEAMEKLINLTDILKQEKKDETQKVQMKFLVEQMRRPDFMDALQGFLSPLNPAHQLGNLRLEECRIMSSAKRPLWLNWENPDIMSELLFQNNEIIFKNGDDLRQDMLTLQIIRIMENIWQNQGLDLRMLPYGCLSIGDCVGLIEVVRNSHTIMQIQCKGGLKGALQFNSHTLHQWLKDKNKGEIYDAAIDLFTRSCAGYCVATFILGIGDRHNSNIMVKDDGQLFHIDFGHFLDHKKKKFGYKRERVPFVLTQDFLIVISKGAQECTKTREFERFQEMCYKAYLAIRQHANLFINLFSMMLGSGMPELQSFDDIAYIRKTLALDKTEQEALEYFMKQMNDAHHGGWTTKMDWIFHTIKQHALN
Sequence (P27986 whole entry partner, species assumed): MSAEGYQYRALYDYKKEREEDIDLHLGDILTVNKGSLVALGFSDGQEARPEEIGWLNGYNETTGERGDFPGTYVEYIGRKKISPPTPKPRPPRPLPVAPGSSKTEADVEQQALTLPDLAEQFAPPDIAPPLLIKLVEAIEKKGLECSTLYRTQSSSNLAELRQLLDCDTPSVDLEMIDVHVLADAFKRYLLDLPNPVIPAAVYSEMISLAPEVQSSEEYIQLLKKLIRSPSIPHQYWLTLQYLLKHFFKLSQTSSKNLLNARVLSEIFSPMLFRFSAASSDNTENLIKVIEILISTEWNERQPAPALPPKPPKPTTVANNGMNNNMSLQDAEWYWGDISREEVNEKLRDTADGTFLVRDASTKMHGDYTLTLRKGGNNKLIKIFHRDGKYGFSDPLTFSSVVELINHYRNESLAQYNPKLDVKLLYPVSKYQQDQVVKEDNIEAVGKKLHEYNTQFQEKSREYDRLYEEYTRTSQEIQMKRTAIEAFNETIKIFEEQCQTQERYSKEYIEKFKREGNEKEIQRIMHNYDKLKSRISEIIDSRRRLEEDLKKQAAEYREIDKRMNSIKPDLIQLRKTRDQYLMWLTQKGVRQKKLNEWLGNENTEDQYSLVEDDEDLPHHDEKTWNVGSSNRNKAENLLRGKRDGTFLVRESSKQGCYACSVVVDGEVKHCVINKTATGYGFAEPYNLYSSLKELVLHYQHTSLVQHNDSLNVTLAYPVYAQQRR
IC50 / nM: 78

Tested system PI3K-alpha (Homo sapiens, UniProt P42336); IC50 recorded for `C[C@@H]1COCCN1c1cc(N2C3CCC2COC3)nc(-c2ccc(NC(=O)Nc3cccnc3)cc2)n1` was 1060

Readout IC50 for `CN1CCN(c2ccc(NC(=O)Nc3ccc(-c4nc(NCCS(C)(=O)=O)cc(N5C6CCC5COC6)n4)cc3)cc2)CC1` , test system PI3K-alpha (Homo sapiens, UniProt P42336), was 1840

Tested on PI3K-alpha (Homo sapiens, UniProt P42336): `CN1CCN(C(=O)c2ccc(NC(=O)Nc3ccc(-c4nc(N5C6CCC5COC6)cc(N5C6CCC5COC6)n4)cc3)cc2)CC1` . Observed IC50: 129

* * *

# Target Of Assay: mTOR (Homo sapiens, UniProt P42345)
# Sequence (P42345 1360-2549 limits assumed): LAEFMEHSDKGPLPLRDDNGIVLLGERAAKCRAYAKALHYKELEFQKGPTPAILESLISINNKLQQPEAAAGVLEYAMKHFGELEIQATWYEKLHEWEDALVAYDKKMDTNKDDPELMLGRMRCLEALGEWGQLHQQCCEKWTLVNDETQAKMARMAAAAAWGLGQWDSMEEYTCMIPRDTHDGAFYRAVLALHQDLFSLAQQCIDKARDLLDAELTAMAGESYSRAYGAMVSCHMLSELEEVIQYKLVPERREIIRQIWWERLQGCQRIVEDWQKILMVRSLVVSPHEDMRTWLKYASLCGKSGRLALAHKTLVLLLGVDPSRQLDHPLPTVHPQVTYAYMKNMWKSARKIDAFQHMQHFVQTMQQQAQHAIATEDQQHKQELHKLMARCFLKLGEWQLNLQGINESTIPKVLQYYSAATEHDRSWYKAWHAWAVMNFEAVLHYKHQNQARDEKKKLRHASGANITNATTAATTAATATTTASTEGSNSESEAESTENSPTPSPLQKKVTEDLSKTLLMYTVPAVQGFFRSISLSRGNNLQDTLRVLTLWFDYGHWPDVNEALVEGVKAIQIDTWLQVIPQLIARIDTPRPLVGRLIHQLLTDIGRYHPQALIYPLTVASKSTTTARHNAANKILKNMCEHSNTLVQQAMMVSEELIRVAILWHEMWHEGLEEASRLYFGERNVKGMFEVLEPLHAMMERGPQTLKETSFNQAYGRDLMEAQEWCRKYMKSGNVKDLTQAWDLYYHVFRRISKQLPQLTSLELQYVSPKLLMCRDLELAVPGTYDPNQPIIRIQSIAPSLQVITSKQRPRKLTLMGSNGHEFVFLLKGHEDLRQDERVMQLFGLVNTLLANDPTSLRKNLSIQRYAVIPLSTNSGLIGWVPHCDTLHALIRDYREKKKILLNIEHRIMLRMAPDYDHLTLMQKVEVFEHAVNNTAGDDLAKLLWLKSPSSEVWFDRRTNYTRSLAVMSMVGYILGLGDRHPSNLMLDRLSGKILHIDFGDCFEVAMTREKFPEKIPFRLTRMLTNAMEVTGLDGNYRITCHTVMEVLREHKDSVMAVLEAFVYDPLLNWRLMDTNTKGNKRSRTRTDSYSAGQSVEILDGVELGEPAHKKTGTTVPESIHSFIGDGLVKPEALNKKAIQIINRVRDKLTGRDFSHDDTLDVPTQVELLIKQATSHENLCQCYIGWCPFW
# Protocol: mTOR enzyme assay (DELFIA, purified FLAG-TOR, His6-S6K substrate)
# Assay type: biochemical
# Parameters: FLAG
# Measurement Conditions: 100 μM ATP, 2 hours
So basically, if IC50 comes in under 8 nM it's criterion met, and if it's 8 nM or more it's criterion not met.

Solved cases (5 shown):
Smiles Representation: CN1CCN(c2ccc(NC(=O)Nc3ccc(-c4nc(CS(C)(=O)=O)cc(N5CC6CCC(C5)O6)n4)cc3)cc2)CC1
Group: criterion met
//
Smiles Representation: CNC(=O)Nc1ccc(-c2nc(CN(C)C)cc(N3C4CCC3COC4)n2)cc1
Group: criterion not met
//
Smiles Representation: CN1CCN(c2ccc(NC(=O)Nc3ccc(-c4nc(N5C6CCC5COC6)cc(N5C[C@H]6C[C@@H]5CO6)n4)cc3)cc2)CC1
Group: criterion met
//
Smiles Representation: CC(C)Oc1cc(N2CC3CCC(C2)O3)nc(-c2ccc(NC(=O)Nc3ccc(N4CCN(C)CC4)cc3)cc2)n1
Group: criterion met
//
Smiles Representation: C[C@@H]1CN(c2cc(N3C4CCC3COC4)nc(-c3ccc(NC(=O)Nc4ccc(C(=O)N5CCN(C)CC5)cc4)cc3)n2)C[C@H](C)O1
Group: criterion met

Query string: Regarding `CS(=O)(=O)CCNc1cc(N2C3CCC2COC3)nc(-c2ccc(NC(=O)Nc3ccncc3)cc2)n1` , kindly confirm whether its IC50 is beneath 8 nM.
Result string: criterion met

Query string: Is IC50 strictly under 8 nM for the entry `CN1CCN(Cc2ccc(NC(=O)Nc3ccc(-c4nc(NCCS(C)(=O)=O)cc(N5C6CCC5COC6)n4)cc3)cc2)CC1` ?
Result string: criterion not met

* * *

# Target Of Assay: PI3K-alpha (Homo sapiens)
pIC50 values for the molecules below.
In simple prose, pIC50 is minus the logarithm base ten of a concentration in moles per litre.

The following molecules have reported results that may help.
Smiles Representation: CCNC(=O)Nc1ccc(-c2nc(CN(C)C)cc(N3C4CCC3COC4)n2)cc1
Value Kind: pIC50
Measured: 5.20

Smiles Representation: CN(C)CCOc1ccc(NC(=O)Nc2ccc(-c3nc(NC4CCOCC4)cc(N4C5CCC4COC5)n3)cc2)cc1
Value Kind: pIC50
Measured: 5.95

Smiles Representation: C[C@@H]1COCCN1c1cc(N2C3CCC2COC3)nc(-c2ccc(NC(=O)Nc3ccc(OCCN(C)C)cc3)cc2)n1
Value Kind: pIC50
Measured: 6.07

The reported pIC50 of the molecule `CNC(=O)Nc1ccc(-c2nc(N3CC4CCC(C3)O4)cc(C(F)(F)F)n2)cc1` was 5.81

Input `CN1CCN(c2ccc(NC(=O)Nc3ccc(-c4nc(C5CCOCC5)cc(N5C6CCC5COC6)n4)cc3)cc2)CC1` . Output pIC50: 5.97

`O=C(Nc1ccncc1)Nc1ccc(-c2nc(N3C4CCC3COC4)cc(N3C4CCC3COC4)n2)cc1` has a reported pIC50 of 6.02

pIC50 for `CC(C)Nc1cc(N2CC3CCC(C2)O3)nc(-c2ccc(NC(=O)Nc3ccc(N4CCN(C)CC4)cc3)cc2)n1` is 6.67

* * *

# Target Of Assay: PI3K-gamma (Homo sapiens, UniProt P48736)
# Sequence (P48736 whole entry, species assumed): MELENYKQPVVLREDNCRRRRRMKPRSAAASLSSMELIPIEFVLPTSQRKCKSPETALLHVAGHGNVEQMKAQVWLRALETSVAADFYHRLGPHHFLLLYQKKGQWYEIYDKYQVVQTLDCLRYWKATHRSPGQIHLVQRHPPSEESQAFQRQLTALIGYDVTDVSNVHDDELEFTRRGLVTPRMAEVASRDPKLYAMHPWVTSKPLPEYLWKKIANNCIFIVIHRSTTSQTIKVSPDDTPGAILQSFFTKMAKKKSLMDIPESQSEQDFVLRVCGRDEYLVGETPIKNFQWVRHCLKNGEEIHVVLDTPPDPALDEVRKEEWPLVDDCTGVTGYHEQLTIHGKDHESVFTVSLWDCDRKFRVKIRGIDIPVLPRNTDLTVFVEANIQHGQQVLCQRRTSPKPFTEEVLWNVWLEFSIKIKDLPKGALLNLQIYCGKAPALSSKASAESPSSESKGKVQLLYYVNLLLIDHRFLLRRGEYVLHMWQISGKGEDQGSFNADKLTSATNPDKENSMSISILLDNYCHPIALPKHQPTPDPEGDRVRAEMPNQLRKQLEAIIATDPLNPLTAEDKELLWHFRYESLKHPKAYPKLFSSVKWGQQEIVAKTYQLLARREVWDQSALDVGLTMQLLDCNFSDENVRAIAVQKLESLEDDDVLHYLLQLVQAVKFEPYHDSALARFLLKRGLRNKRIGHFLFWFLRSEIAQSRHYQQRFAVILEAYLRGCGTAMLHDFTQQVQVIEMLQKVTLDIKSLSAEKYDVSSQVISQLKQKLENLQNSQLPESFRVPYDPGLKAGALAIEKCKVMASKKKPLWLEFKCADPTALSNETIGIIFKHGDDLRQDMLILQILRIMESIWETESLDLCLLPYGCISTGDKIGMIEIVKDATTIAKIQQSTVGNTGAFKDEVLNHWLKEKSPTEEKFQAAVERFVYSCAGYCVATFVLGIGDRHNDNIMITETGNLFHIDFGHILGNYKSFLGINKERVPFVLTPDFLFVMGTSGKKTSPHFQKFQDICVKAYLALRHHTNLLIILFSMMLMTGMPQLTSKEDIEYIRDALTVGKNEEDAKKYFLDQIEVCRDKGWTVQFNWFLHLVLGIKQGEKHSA
IC50 strictly less than 5 µM = TRUE. Otherwise FALSE.

Smiles Representation: CN(C)Cc1ccc(NC(=O)Nc2ccc(-c3nc(N4C5CCC4COC5)cc(N4C[C@@H]5C[C@H]4CO5)n3)cc2)cc1
Group: FALSE

Smiles Representation: CN1CCN(c2ccc(NC(=O)Nc3ccc(-c4nc(N5C6CCC5COC6)cc(N5C[C@@H]6C[C@H]5CO6)n4)cc3)cc2)CC1
Group: FALSE

Smiles Representation: CS(=O)(=O)CCNc1cc(N2C3CCC2COC3)nc(-c2ccc(NC(=O)Nc3cccnc3)cc2)n1
Group: FALSE

Smiles Representation: CN(C)CCOc1ccc(NC(=O)Nc2ccc(-c3nc(NCCS(C)(=O)=O)cc(N4C5CCC4COC5)n3)cc2)cc1
Group: FALSE

Smiles Representation: CN1CCN(c2ccc(NC(=O)Nc3ccc(-c4nc(NCCS(C)(=O)=O)cc(N5C6CCC5COC6)n4)cc3)cc2)CC1
Group: FALSE

Smiles Representation: C[C@@H]1COCCN1c1cc(N2C3CCC2COC3)nc(-c2ccc(NC(=O)Nc3ccc(OCCN(C)C)cc3)cc2)n1
Group: FALSE

Query string: Please determine if `C[C@@H]1COCCN1c1cc(N2C3CCC2COC3)nc(-c2ccc(NC(=O)Nc3ccc(N4CCN(C)CC4)cc3)cc2)n1` is below 5 µM in terms of IC50.
Result string: TRUE

Query string: Identify whether the compound `CN(C)Cc1cc(N2C3CCC2COC3)nc(-c2ccc(NC(=O)Nc3cccnc3)cc2)n1` records IC50 below 5 µM.
Result string: FALSE

Query string: Quick check: does `CN1CCN(c2ccc(NC(=O)Nc3ccc(-c4nc(C5CCOCC5)cc(N5C6CCC5COC6)n4)cc3)cn2)CC1` have IC50 under 5 µM?
Result string: FALSE

Query string: Given `CC(C)Nc1cc(N2C3CCC2COC3)nc(-c2ccc(NC(=O)Nc3ccc(CN(C)C)cc3)cc2)n1` , is recorded IC50 strictly lower than 5 µM?
Result string: TRUE

Query string: I wonder whether `CCN(CC)c1cc(N2C3CCC2COC3)nc(-c2ccc(NC(=O)Nc3ccc(N4CCN(C)CC4)cc3)cc2)n1` has IC50 below 5 µM. Can you tell?
Result string: TRUE
